Test system: ACHN renal
Assay: NCI-60 one-dose screen, 48 h (100 = growth as untreated, 0 = no growth, -100 = all killed)
Details: 10 µM unless noted
Experimental: Growth inhibition of the ACHN human tumor cell line is measured as a screen for anti-cancer activity. Cells are grown in 96 well plates and exposed to the test compound for 48 hours. Compounds are tested at a single concentration, which is 10^-5 M for most compounds. The reported endpoint is percent growth (GI% or GIPRCNT), where numbers from 0 - 100% represent growth inhibition, and numbers from -100% - 0 represent cell death. For example, a value of 40 represents 60% growth inhibition. […]
The panel holds about 83,000 compounds, 20% with a hit somewhere; the sample as a whole holds those more often. Active and inactive are the calls of the source. How the source made its calls: active means growth percent below 10; inactive means the rest.
Readings of growth for the listed compounds
QUANTITY KIND: growth

>>> value("Cc1cn(C2CC(F)C(CO)O2)c(=O)[nH]c1=O (centres undefined)")
"83.7% (inactive)"
>>> value("COc1ccc(C(=O)NC(=O)Nc2ccc3c(c2)NC(=O)/C3=C\\c2[nH]c(C)c(C(=O)O)c2C)cc1")
"52.6% (inactive)"
>>> value("C/C(=N\\N=C1/SCC(=O)N1c1ccccc1)c1ccco1")
"106% (inactive)"
>>> value("Cc1ccc2oc(=O)cc(C3C(C#N)=C(N)Oc4c3ccc3ccccc43)c2c1 (centres undefined)")
"99% (inactive)"

All figures here come from PubChem BioAssay (NCI).
